B1: Formin-binding protein 4, residues 200 to 261; numbered along this chain, Q8N3X1 (parent)
chain: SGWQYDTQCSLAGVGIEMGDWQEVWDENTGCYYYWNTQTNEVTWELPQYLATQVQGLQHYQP

Variants of: B1
Assay: abundance fitness (aPCA) (normalised: wild type 0, dead -1); higher = more abundant; growth selection in yeast, the domain comes from the species named
Conditions: Homo sapiens
MEASUREMENT LABEL: abundance fitness

These solved cases illustrate the format of a correct answer.
[[record]]
variant_id = "P47R"
measurement_label = "abundance fitness"
observed_result = -0.895

[[record]]
variant_id = "W21F"
measurement_label = "abundance fitness"
observed_result = -0.313

[[record]]
variant_id = "L46I"
measurement_label = "abundance fitness"
observed_result = -0.245

[[record]]
variant_id = "E27Y"
measurement_label = "abundance fitness"
observed_result = -0.288


For each of the items listed, what is its abundance fitness?
1. E45L
2. L46W
3. G19D
4. Q22D
5. Q22H
6. L50A
7. G56R
8. T39Q

-0.21
-0.493
-0.362
-0.371
-0.641
-0.822
0.004
-0.226
